- Test system: HER2
- assay_info: HER2 degradation in BT-474 cells (Example 3, Western blot / in-cell imaging)
- Type: cell-based, human
- condition_details: Homo sapiens; BT-474 cells; read-out: HER2 (IC50)
pIC50: −log10 of the molar value.
measurement_type: pIC50

• CC(C)c1cc(-c2nnc(O)n2-c2ccc3c(ccn3CCOC(=O)Nc3nc(=O)[nH]cc3F)c2)c(O)cc1O [SDC-TRAP-0025] = 6.40
• CC(C)c1cc(-c2nnc(O)n2-c2ccc3c(ccn3CCN(C)C(=O)c3ccc(CCc4c[nH]c5nc(N)[nH]c(=O)c45)cc3)c2)c(O)cc1O [SDC-TRAP-0019] = 5.35
• CCc1c2c(nc3ccc(OCC(=O)NCCn4ccc5cc(-n6c(O)nnc6-c6cc(C(C)C)c(O)cc6O)ccc54)cc13)-c1cc3c(c(=O)n1C2)COC(=O)C3(O)CC (stereo not drawn) [SDC-TRAP-0023] = 5.37

---

- assay_info: in vivo
- condition_details: mouse, Tumor/Plasma Ratio, Tissue Distribution Data for SDC-TRAP-0154, time 6 h
measurement_type: Kp

* CCNC(=O)c1nnc(-c2cc(C(C)C)c(O)cc2O)n1-c1ccc(Oc2ccc(C(=O)N3CCC(C(=O)OC4(CC)C(=O)OCc5c4cc4n(c5=O)Cc5c-4nc4ccc(O)cc4c5CC)CC3)cc2)cc1 (stereo not shown) | 1.86

---

- assay_info: in vivo
- condition_details: mouse, Tumor/Plasma Ratio, Tissue Distribution Data for SDC-TRAP-0154, time 1 h
measurement_type: Kp

• CCNC(=O)c1nnc(-c2cc(C(C)C)c(O)cc2O)n1-c1ccc(Oc2ccc(C(=O)N3CCC(C(=O)OC4(CC)C(=O)OCc5c4cc4n(c5=O)Cc5c-4nc4ccc(O)cc4c5CC)CC3)cc2)cc1 (stereo not shown) [SDC-TRAP-0154] = 0.06

---

- assay_info: in vivo
- condition_details: mouse, Plasma Conc.
measurement_type: concentration at 48 h (nM)

- CC(C)c1cc(-c2nnc(O)n2-c2ccc(CC3CCN(CC(=O)Nc4cccc5c4CN(C4CCC(=O)NC4=O)C5=O)CC3)cc2)c(O)cc1O (stereo not shown): 31.5

---

pIC50 values, listed per item
- System: HER2
- assay_info: HER2 degradation in BT-474 cells (Example 3, Western blot / in-cell imaging)
- Assay type: cell-based, human
- condition_details: Homo sapiens; BT-474 cells; read-out: HER2 (IC50)
pIC50: −log10 of the molar value.
measurement_type: pIC50

• CCc1c2c(nc3ccc(OCC(=O)N(C)CCOCCn4ccc5cc(-n6c(O)nnc6-c6cc(C(C)C)c(O)cc6O)ccc54)cc13)-c1cc3c(c(=O)n1C2)COC(=O)C3(O)CC (stereo not drawn) = < 5.30
• CC(C)c1cc(-c2nnc(O)n2-c2ccc(CN3CCN(C(=O)CCCC(=O)Nc4cccc5c4CN(C4CCC(=O)NC4=O)C5=O)CC3)cc2)c(O)cc1O (stereo not drawn) = < 5.30
• CC(C)c1cc(-c2nnc(O)n2-c2ccc3c(ccn3CCN(C)C(=O)CCCC(=O)Nc3cccc4c3CN(C3CCC(=O)NC3=O)C4=O)c2)c(O)cc1O (stereo not drawn) = < 5.30
